meta.source: ChEMBL document CHEMBL2203078

Parameter: concentration at 2 h. Scope: all listed entries.
- procedure summary: Drug concentration in Sprague-Dawley rat brain at 10 mg/kg, po after 2 hrs
- Assay type: ADME, organism-based
- Set-up: dose 10 mg/kg, route oral
- conditions used: read-out: Drug uptake

Below are worked cases with known answers.
O=C(N[C@H]1CCCC[C@@H]1O)c1cc(CN2CCN(c3cc4scnc4cn3)CC2)c2ccccn2c1=O | 77 nM
N#CC1(c2ccccc2)CCN(Cc2cc(C(=O)N[C@H]3CCCC[C@@H]3O)c(=O)n3ccccc23)CC1 | 896 nM
N#CC1(c2ccccn2)CCN(Cc2cc(C(=O)NC3CCOCC3)c(=O)n3ccccc23)CC1 | 559 nM

Per the record, N#CC1(c2ccccn2)CCN(Cc2cc(C(=O)N[C@H]3CCCC[C@@H]3F)c(=O)n3ccccc23)CC1 has concentration at 2 h of 280 nM

----------
- procedure summary: Drug concentration in Sprague-Dawley rat CSF at 10 mg/kg, po after 2 hrs
- Type: ADME, organism-based, Cerebrospinal fluid
- Design: dose 10 mg/kg, route oral
- conditions used: read-out: Drug uptake
Parameter: concentration at 2 h. Scope: all listed entries.
Quick note: give the figure in nM, leave out the unit.

Below are worked cases with known answers.
N#CC1(c2ccccn2)CCN(Cc2cc(C(=O)N[C@H]3CCCC[C@@H]3F)c(=O)n3ccccc23)CC1 | 27
N#CC1(c2ccccn2)CCN(Cc2cc(C(=O)NC3CCOCC3)c(=O)n3ccccc23)CC1 | 215
O=C(N[C@H]1CCCC[C@@H]1O)c1cc(CN2CCN(c3cc4scnc4cn3)CC2)c2ccccn2c1=O | 4

// next entry
Per the record, N#CC1(c2ccccc2)CCN(Cc2cc(C(=O)N[C@H]3CCCC[C@@H]3O)c(=O)n3ccccc23)CC1 has concentration at 2 h of 29

----------
- target: Muscarinic acetylcholine receptor M1 (Homo sapiens) (UniProt P11229)
- Sequence (P11229 whole entry): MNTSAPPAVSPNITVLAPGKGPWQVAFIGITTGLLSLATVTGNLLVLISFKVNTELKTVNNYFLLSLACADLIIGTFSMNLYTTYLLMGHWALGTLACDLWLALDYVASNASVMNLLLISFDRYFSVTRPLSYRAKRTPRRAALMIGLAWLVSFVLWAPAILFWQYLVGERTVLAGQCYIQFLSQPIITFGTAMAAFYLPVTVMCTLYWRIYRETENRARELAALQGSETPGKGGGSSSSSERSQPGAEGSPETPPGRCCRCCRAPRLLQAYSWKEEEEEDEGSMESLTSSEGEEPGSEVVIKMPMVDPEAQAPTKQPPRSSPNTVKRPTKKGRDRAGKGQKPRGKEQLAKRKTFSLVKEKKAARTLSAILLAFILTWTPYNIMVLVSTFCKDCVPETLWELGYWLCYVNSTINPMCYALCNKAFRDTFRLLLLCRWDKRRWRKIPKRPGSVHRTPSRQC
- procedure summary: Positive allosteric modulation of human muscarinic M1 receptor expressing in CHONFAT cells assessed as potentiation of acetylcholine-induced calcium mobilization preincubated for 4 mins and measured 4 mins after acetylcholine stimulation by FLIPR assay
- Format: functional, cell-based
Parameter: log10(IP). Scope: all listed entries.
All values: log10 IP [nM].

N#CC1(c2ccccn2)CCN(Cc2cc(C(=O)NC3CCC3)c(=O)n3ccccc23)CC1 | 2.99
N#CC1(c2ccccn2)CCN(Cc2cc(C(=O)NC3CCCCCC3)c(=O)n3ccccc23)CC1 | 2.48
Cn1cc(NC(=O)c2cc(CN3CCC(C#N)(c4ccccn4)CC3)c3ccccn3c2=O)nn1 | 3.11

Per the record, Cc1ccccc1NC(=O)c1cc(CN2CCC(C#N)(c3ccccn3)CC2)c2ccccn2c1=O has log10(IP) of 3.38

Per the record, N#CC1(c2ccccn2)CCN(Cc2cc(C(=O)N[C@H]3CCCC[C@@H]3F)c(=O)n3ccccc23)CC1 has log10(IP) of 2.17

Per the record, N#CC1(c2ccccn2)CCN(Cc2cc(C(=O)N[C@H]3CCCC[C@@H]3O)c(=O)n3ccccc23)CC1 has log10(IP) of 1.49

Per the record, N#CC1(c2ccccn2)CCN(Cc2cc(C(=O)NC3CCCCC3(F)F)c(=O)n3ccccc23)CC1 (centres undefined) has log10(IP) of 2.31

Per the record, N#CC1(c2ccccn2)CCN(Cc2cc(C(=O)N[C@@H]3CCCC[C@H]3O)c(=O)n3ccccc23)CC1 has log10(IP) of 2.34
